Protocol notes: qHTS for Inflammasome Signaling Inhibitors: IL-1-beta AlphaLISA screen against the NCATS CANVASS Library (AID 1347379);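 note: human THP-1 cells primed with LPS then triggered with ATP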
Cond: THP-1 LPS/ATP, IL-1B AlphaLISA secretion, 16 h; series mostly up to 57.5 µM
Records with an inconclusive call do not appear. Calls of active or inactive are those of the source. Calls come from the whole dose curve; as a rule, active = well fitted inhibition curve with a large enough effect; inconclusive = small, poorly fitted or top-dose-only effect; inactive = flat fitted curve, though single readings scatter.
Can you answer with just one of these options? TRUE = active, FALSE = inactive

Compound	Label
CO[C@@H](C[C@@H](C)[C@@H](O)/C=C/C=C/CNC(=O)C(C)(C)[C@H](O)\C(C)=C/C=C\C=C\Cc1cnco1)[C@]1(O)[C@@H](C)C(=O)N(C)[C@@]12COC2=O	FALSE
C/C(=C\CC[C@@H](C)[C@H]1CC[C@]2(C)C3=CCC4C(C)(C)[C@@H](O)C[C@@H](O)[C@]4(C)C3[C@H](O)C[C@@]12C)CO (stereo partly drawn)	FALSE
C/C=C(/C)c1c(Cl)c(O)c(C)c2c1Oc1c(Cl)c(O)c(Cl)c(C)c1C(=O)O2	FALSE

Consider now this further compound.
Query: What did this assay record as the result for C/C=C(/C)c1cc(O)c(C)c2c1Oc1cc(O)cc(C)c1C(=O)O2 ?
Result: FALSE

----------
Protocol notes: qHTS Assay for Lipid Storage Modulators (AID 1519)
Cond: Drosophila S3 cells, BODIPY lipid droplet/cell ratio, laser cytometry; measured here: cell count channel max response; cells loaded with oleic acid
Records with an inconclusive call do not appear.
max response overview
A number alone suffices; assume %.

# count of solved cases: 6
                            smiles_notation  measurement
0  CN(C)C(=O)c1ccc(-c2cncnc2NCCc2cnc[nH]2)cc1         29.1
1  N#CCCn1c(=O)c(-c2cccs2)nc2cnc(OCc3ccccc3)nc21        0.666
2  COc1ccc(CNc2cc(-c3cccc(C#N)c3)ncn2)c(OC)c1         18.5
3  CN1CCN(c2ncc3nc(-c4ccccc4)c(=O)n(CCc4ccccc4)c3n2)CC1         -2.1
4   COc1ccc(CNc2cc(-c3ccccc3Cl)ncn2)c(OC)c1         19.5
5  COc1cccc(Cn2c(=O)c(-c3ccccc3)nc3cnc(N4CCNCC4)nc32)c1         8.56

Query: If you can, please state the reported max response value of CN(C)c1ncc2nc(-c3cccc(C#N)c3)c(=O)n(CCC#N)c2n1 .
Result: 5.81

Query: Also, COc1ccccc1CNc1ncncc1-c1cccnc1 please.
Result: 11.7

Query: Likewise for COC(=O)N1CCC2(CCN(C(=O)NC(C)C)CC2)CC1 ?
Result: 7.58

Query: And then COc1ccc(NC(=O)N2CC[C@@]3(CCCN(C(=O)c4csnn4)C3)C2)cc1 , what is it?
Result: 14.7

Query: Try this compound too: c1cncc(CNc2ncnc3ccc(-c4cccnc4)cc23)c1
Result: -9.9

Query: Would you kindly repeat that for O=C(c1csnn1)N1CCC2(CC1)CN(c1ccccc1)C2 ?
Result: 13.3

Query: And the next one, Cc1cccc(CNc2ncnc3ccc(-c4cccnc4)cc23)c1 ?
Result: -7.82

Query: Please answer likewise for COC(=O)N1CCC2(CCN(Cc3cc(C(F)(F)F)cc(C(F)(F)F)c3)CC2)CC1
Result: -2.08

Query: Next entry: CCNc1ncc2nc(-c3ccc(OC)cc3)c(=O)n(C[C@H]3CCCO3)c2n1
Result: 8.2

Query: Also O=C(c1cnccn1)N1CCC[C@@]2(CCN(Cc3cc(C(F)(F)F)cc(C(F)(F)F)c3)C2)C1 , if possible.
Result: 14.7

Query: Now give it for COCCn1c(=O)cnc2cnc(Nc3ccccc3)nc21 too.
Result: -2.6

Query: And COCC(=O)N1CCC2(CC1)CN(Cc1cc(C(F)(F)F)cc(C(F)(F)F)c1)C2 ?
Result: 25.1

Query: Here is the next compound: Cc1cnc(CNc2ncncc2-c2cccnc2)cn1
Result: 29.4

Query: What about this compound? FC(F)(F)c1ccccc1-c1ccc2ncnc(NCc3cccnc3)c2c1
Result: 9.95

Query: Would you kindly repeat that for CS(=O)(=O)N1CCC2(CC1)CN(C(=O)Nc1ccccc1)C2 ?
Result: 6.27

Query: Now give it for CS(=O)(=O)Nc1cccc(-c2ccc3ncnc(N4CCNCC4)c3c2)c1 too.
Result: 18.2

----------
Target desc: Luciferin 4-monooxygenase (Photinus pyralis)
Protocol notes: Firefly luciferase counterscreen qHTS: Assay Interference Panel against the NCATS CANVASS Library (AID 1347363); note: 0% is about no effect
Cond: purified firefly luciferase, luminescence inhibition, 5 min; series mostly up to 57.5 µM
Calls of active or inactive are those of the source. Calls follow the shape of the dose curve; as a rule, active = well fitted curve in the direction sought with a large enough effect; inconclusive = small, poorly fitted or top-dose-only effect, or another doubt; inactive = no such curve, though single readings can be large or run the other way.
Respond with a class label; see active, inactive

# count of solved cases: 5
>>> df
                                   compound                               target_desc     label
0  C/C(=C\[C@H](C)C(=O)CCCC1CC(=O)NC(=O)C1)[C@@H]1OC(=O)/C=C/CC/C=C/[C@H](O)[C@@H](O)[C@@H]1C  Luciferin 4-monooxygenase (Photinus pyralis)  inactive
1  C/C=C/C(=O)C1(O)CC2CC(C(=O)O)CC(C)C2C1C1=C2C(=O)NC(=O)C2=C(CCCCC)C(C)O1 (stereo not drawn)  Luciferin 4-monooxygenase (Photinus pyralis)  inactive
2     COc1c(O)cc(O)c2c(=O)cc(-c3ccccc3)oc12  Luciferin 4-monooxygenase (Photinus pyralis)  inactive
3  COc1ccc([C@@H]2c3cc4c(cc3C[C@H](C)C2C)OCO4)cc1OC (stereo partly drawn)  Luciferin 4-monooxygenase (Photinus pyralis)  inactive
4  C=C1C(=O)O[C@H]2[C@H]1CCC(C)=C1CC[C@@](C)(O)[C@@H]12  Luciferin 4-monooxygenase (Photinus pyralis)  inactive

Query: Entry C/C(=C\CC[C@@H](C)[C@H]1CC[C@]2(C)C3=CCC4C(C)(C)[C@@H](O)C[C@@H](O)[C@]4(C)C3[C@H](O)C[C@@]12C)CO (stereo partly drawn) : call = ?
Result: inactive

Query: Input CC[C@H](O)CCCCC[C@@H]1NC(=O)[C@H]2CCCCN2C(=O)[C@H]([C@H](C)CC)NC(=O)[C@H](Cc2cn(OC)c3ccccc23)NC1=O
Result: inactive

----------
Protocol notes: qHTS Assay for Lipid Storage Modulators (AID 1519); for activity change, negative = inhibition: % is set by controls: 0 for no effect and ±100 for the full control effect
Cond: Drosophila S3 cells, BODIPY lipid droplet/cell ratio, laser cytometry; at 57.5 µM (top of the series); cells loaded with oleic acid
Inconclusive results are not listed.
Measured parameter: activity change, negative = inhibition (%)
A number alone suffices; assume %.

Some solved cases for reference:
>>> df
                                   compound                      measured_parameter  measurement
0  COc1ccc(C(=O)N2CCC3(CC2)CN(C(=O)Nc2ccccc2)C3)cc1  activity change, negative = inhibition         5.49
1         CN1CCCC2(CCN(C(=O)c3cccn3C)CC2)C1  activity change, negative = inhibition         1.86
2               CNc1cc(-c2ccccc2CN(C)C)ncn1  activity change, negative = inhibition         2.26
3    CCNc1ncc2nc(C)c(=O)n(Cc3ccc(F)cc3)c2n1  activity change, negative = inhibition         3.29
4  O=c1c(-c2cc(F)cc(F)c2)nc2cnc(Nc3ccccc3)nc2n1C[C@H]1CCCO1  activity change, negative = inhibition        -10.6

Query: Fill blank: measured activity change, negative = inhibition of the compound Cc1noc(C)c1C(=O)N1CCC2(CC1)CN(c1ncccn1)C2 is ____.
Result: 6.33

Query: Item: O=C(c1cnccn1)N1CCC[C@@]2(CCN(Cc3cc(C(F)(F)F)cc(C(F)(F)F)c3)C2)C1
Result: 4.01

Query: Try the compound O=c1cnc2cnc(Nc3ccccc3)nc2n1Cc1cccs1
Result: 1.01

----------
Protocol notes: NFAT Signaling Pathway (AID 444);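 note: carbachol stimulus at about its EC50 of 1 µM final; % is set by controls: 0 for no effect and ±100 for the full control effect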
Cond: Jurkat NFAT-bla M1, carbachol, beta-lactamase ratio, 5 h; at 7.69 µM (top of the series) unless noted
Results filed as inconclusive are left out. Active and inactive are the calls of the source. Calls follow the shape of the dose curve; as a rule, active = well fitted curve in either direction with a large enough effect (not every such curve was filed as active); inconclusive = small, poorly fitted or top-dose-only effect, or another doubt; inactive = flat fitted curve, though single readings scatter.
Each item that follows carries a reported activity change, negative = inhibition.

# count of solved cases: 5
>>> df
                            smiles_notation        measurement
0  Cc1noc(C)c1C(=O)N1CCC2(CC1)CCN(c1cccc(-c3ccccc3)c1)CC2  -2.13% (inactive)
1  COc1ccc(NC(=O)N2CCCC3(CCN(C(=O)c4cnccn4)CC3)C2)cc1   1.32% (inactive)
2  COc1ccc(-c2nc3cnc(N4CCOCC4)nc3n(C[C@H]3CCCO3)c2=O)cc1   15.8% (inactive)
3              CNc1ncnc2ccc(-c3ccccc3C)cc12   3.06% (inactive)
4      COc1ccccc1CN1CCC2(CC1)CCN(C(C)=O)CC2  -28.3% (inactive)

Query: Reported activity change, negative = inhibition for CNc1ncncc1-c1ccccc1OC : what is it?
Result: 8.73% (inactive)

Query: Moving on to the next molecule: CCCC(=O)NCCc1c2n(c3ccc(OC)cc13)Cc1ccccc1-2
Result: -10.2% [at 38 µM] (inactive)
